# Test system: Human papillomavirus type 1a protein E7 (residues 44-93)
# measurement.protocol: small molecules binding HPV E7 44-93 – biochemical, small-molecule microarray, residues 44-93, 635 nm fluorescence, primary screen (AID 1108);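 also: E7 fragment applied at 1 µg/mL in TBST for 1 h at 4 C; score combines spot fluorescence with its signal to noise ratio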
# assay.context: fluorescence 635 nm, higher = more signal
measure: composite z-score
The response must contain the number and no unit.

O[C@@H](Cc1ccccc1)[C@@H](/C=C/C1CC1)N(CC#Cc1ccccc1)Cc1ccccc1Br | -0.0988

# query: composite z-score of entry [N-]=[N+]=Nc1ccccc1C[C@]1(C(=O)NCCN2CCOCC2)COC(c2ccc(OCCCO)cc2)=N1 1.4

# query: composite z-score of entry CCOC(=O)C=Cc1cccc(C)c1O -0.377

# query: composite z-score of entry CCC1=C2CN(Cc3ccccc3)[C@@H](C(=O)Cc3ccccc3)C2C=CCC1 (stereo partly specified) 1.4

# query: composite z-score of entry C=CC[C@@]1(C(=O)NCCCOC)N=C(c2ccc(OCCCO)cc2)O[C@@H]1c1ccccc1N=[N+]=[N-] 1.44

# query: composite z-score of entry Cc1ccc(NN2C(C(O)c3c(F)cccc3Cl)C=CC3C(=O)N(C4CCCCC4)C(=O)C32)cc1 (stereo unspecified) 0.51

###

# study.system: Carbonic anhydrase 2 (Homo sapiens)
# measurement.protocol: compounds binding carbonic anhydrase 2 – biochemical, small-molecule microarray, Alexa647-labelled CAII, profiling panel (AID 1122)
# assay.context: CAII-A647 binding fluorescence, higher = more signal
# composite z-score annotations
The response must contain the number and no unit.

Sample answers from the record:
C=CCOC(=O)[C@@]1(Cc2ccccc2)C[C@H]2CO[C@H](c3ccc(OC)cc3)N2C1=O | -0.0067
CCCC=C(CCC)[C@@H](NS(=O)(=O)CC12CCC(CC1=O)C2(C)C)c1ccc(C(=O)OC)cc1 (stereo partly drawn) | -0.0343
CC[C@@H]1C=C(C(=O)O)[C@H](c2ccccc2)N1S(=O)(=O)c1ccc(C)cc1 | 0.8

Moving on to the next compound.
# query: composite z-score of entry C=CCN1C(=O)[C@]2(CCS(=O)(=O)c3ccccc3)N=C(c3ccc(OCCCO)cc3)O[C@@H]2c2ccccc21 0.594

###

# composite Z-score annotations
# measurement.protocol: probe aXIP binding to arrayed compounds – biochemical, NeuroSMM set, 635/667 nm fluorescence, primary screen (AID 1119);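 also: probe is the protein aXip251-270 applied at 1 µg/mL to compound-printed slides; binding of probe to printed compounds measured as 667 nm fluorescence plus signal to noise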
# assay.context: small-molecule microarray, higher = more signal, called active from +8 up or from −8 down
The response must contain the number and no unit.

Sample answers from the record:
CCN(CC)c1ccc(N2CC=CC34O[C@@H]5/C=C\CCCOC(=O)C5[C@H]3C(=O)N(C(C)CO)[C@@H]4C2=O)cc1 (stereo not given in full) | -0.463
CCOC(=O)C1=C[C@@H](C(C)(C)C)N(S(=O)(=O)c2ccc(C)cc2)[C@H]1c1cccc2ccccc12 | 0.592

Moving on to the next compound.
# query: composite Z-score of entry O=C1O[C@@H](c2ccccc2)[C@@H](c2ccccc2)N2[C@@H](c3ccc(O)cc3)[C@]3(C(=O)Nc4ccc(C#CCCO)cc43)[C@@H](C(=O)N3CCN(c4ncccn4)CC3)[C@H]12 0.698

###

# measurement.protocol: probe aLefty2 binding to arrayed compounds – biochemical, biotinylated probe, 635/667 nm fluorescence, primary screen (AID 1094);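 also: score merges spot fluorescence near 667 nm with spot signal-to-noise ratio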
# assay.context: small-molecule microarray, higher = more signal
# composite z-score annotations
The response must contain the number and no unit.

Sample answers from the record:
COc1ccc([Si](C)(C)[C@@H]2[C@@H](CCO)O[C@]3(C(=O)N(Cc4ccccc4)c4ccc(N5CCOC5=O)cc43)[C@H]2C)cc1 | -0.0722
Cc1ccc(S[C@]2(C(=O)NCCN3CCOCC3)CC(=O)N(Cc3ccccc3Cl)[C@@H]2c2ccc(CO)cc2I)cc1 | 0.508

# query: composite z-score of entry CN(C)C(=O)[C@@]1(Cc2ccccc2CN=[N+]=[N-])N=C(c2ccc(OCCCO)cc2)O[C@H]1c1ccccc1N=[N+]=[N-] 0.445

# query: composite z-score of entry COC(=O)[C@@]1(Cc2ccccc2)[C@H]2c3cc(C(=O)N4CCCC4)n(CCc4ccccn4)c3C[C@H]2CN1C(=O)c1ccccc1 0.754

###

# study.system: Fibroblast growth factor 10 (Homo sapiens) (UniProt O15520)
# Sequence (O15520 whole entry, looked up): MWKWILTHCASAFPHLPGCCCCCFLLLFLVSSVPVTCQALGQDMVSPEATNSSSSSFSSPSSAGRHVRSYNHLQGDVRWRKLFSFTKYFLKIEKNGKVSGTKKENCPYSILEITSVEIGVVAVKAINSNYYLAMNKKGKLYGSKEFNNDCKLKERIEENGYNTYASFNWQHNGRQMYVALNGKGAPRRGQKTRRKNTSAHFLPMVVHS
# measurement.protocol: compounds binding fibroblast growth factor 10 – biochemical, small-molecule microarray, 635 nm fluorescence, primary screen (AID 1102)
# assay.context: FGF10 binding, fluorescence 635 nm, higher = more signal
measure: composite z-score
The response must contain the number and no unit.

NCCCCCCNC(=O)[C@@H]1C[C@@H]2C(=O)N[C@@H](CCCCN)C(=O)N2[C@@H]1c1ccc(O)cc1 | 0.523
COC(=O)[C@]1(CCS(=O)(=O)c2ccccc2)N=C(c2ccc(OCCCO)cc2)O[C@@H]1c1ccccc1N=[N+]=[N-] | 1.3
C=C(/C(=C/C[C@H](OC(=O)c1ccncc1)c1ccc(CO)o1)c1cnc2ccccc2c1)C(C)C | 1.41
CC(C)C(O)C1C=CC2C(=O)N(c3ccccc3)C(=O)C2N1Nc1ccccc1 (stereo unspecified) | 1.22
C#Cc1cc2ccccc2oc1=O | -0.347

Moving on to the next molecule.
# query: composite z-score of entry CCCC[C@@H]1C[C@H]1[C@@H](NC(=O)c1cccs1)c1ccccc1C(F)(F)F -0.0251

###

# z-score annotations
# study.system: NADPH oxidase 2 (Homo sapiens)
# measurement.protocol: compounds shifting NOX2 Amplex Red fluorescence – cell-based, HEK293-NOX2, PMA-stimulated, NOX inhibitor project, primary screen (AID 1159); also: test concentration not given here
# assay.context: 45 min, higher = more signal, called active from +8 up or from −8 down
The response must contain the number and no unit.

# query: z-score of entry COC(=O)[C@]1(CCS(=O)(=O)c2ccccc2)N=C(c2ccc(OCCCO)cc2)O[C@@H]1c1ccccc1N=[N+]=[N-] -2.07

# query: z-score of entry [N-]=[N+]=Nc1ccccc1C[C@@]1(C(=O)N2CCOCC2)N=C(c2ccc(OCCCO)cc2)O[C@@H]1c1ccccc1 0.437

# query: z-score of entry Oc1ccc2cc[n+](Cc3cc4c(cc3Br)OCO4)cc2c1 -0.546

###

# z-score annotations
# measurement.protocol: JC-1 mitochondrial signal, unstimulated MM1S myeloma – cell-based, JC-1 fluorescence, 24 h, 100 nL compound, profiling panel (AID 1170); also: test concentration not given here
# assay.context: MM1S mitochondrial potential, higher = more signal

Sample answers from the record:
O=C1C[C@]2(c3ccc([N+](=O)[O-])cc3)C(=O)N(C3CC3)c3cc(CO)ccc3[C@H]2N1CC12CC3CC(CC(C3)C1)C2 | -1.1
C=C(/C(=C/C[C@H](OC(=O)c1ccncc1)c1ccc(CO)o1)c1cnc2ccccc2c1)C(C)C | -0.161
CCCNC(=O)[C@@]1(Sc2ccc(C)cc2)CC(=O)N(C2Cc3ccccc3C2)[C@@H]1c1ccc(CO)cc1I | -0.987
[N-]=[N+]=Nc1ccccc1C[C@@]1(C(=O)NCCN2CCOCC2)N=C(c2ccc(OCCCO)cc2)O[C@@H]1c1ccccc1N=[N+]=[N-] | -1.27
CCCCC(CC)C(O)C1C=CC2C(=O)N(c3ccccc3)C(=O)C2N1Nc1ccccc1F (stereo not given) | -0.775
COc1ccc(CCNC(=O)[C@@]2(Sc3ccc(C)cc3)CC(=O)N(Cc3ccccc3C(F)(F)F)[C@@H]2c2ccc(CO)cc2I)cc1 | -0.841
COC(=O)C/C=C/C[C@]1(O)C(=O)N(C)c2ccccc21 | 2.2
COc1ccc([Si](C)(C)[C@H]2[C@H](CC(=O)N3CCC[C@H]3CO)O[C@@]3(C(=O)N(Cc4ccc(N5CCOC5=O)cc4)c4ccccc43)[C@@H]2C)cc1 | -0.325
NCCCCCNC(=O)[C@H]1C[C@H]2C(=O)N3CCC[C@H]3C(=O)N2[C@H]1c1cccc(OCCO)c1 | -0.503

# query: z-score of entry Oc1ccc2cc[n+](Cc3cc4c(cc3Br)OCO4)cc2c1 0.313

###

# measurement.protocol: optical density change of DRC41 E. coli – strain DRC41, OD650, 24 h, E. coli filamentation project, primary screen (AID 1093);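 also: MC1000 strain lacking acrAB efflux and sulA so SOS filamentation is blocked; test concentration not given here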
# assay.context: E. coli DRC41 growth, higher = more signal, called active from +8 up or from −8 down
Cut-off 0.9 on z-score, inclusive. At or above means y; below means n.

Example cases with answers are listed next.
CCCNC(=O)[C@@H]1c2ccccc2C(=O)N(Cc2ccc(OC(F)(F)F)cc2)[C@H]1c1ccc(CO)cc1 | y
C=CCC(OC(C)=O)[C@@H]1[C@@H](N(Cc2ccc(-c3ccccc3)cc2)C(=O)c2ccc(-c3ccccc3)cc2)c2cc(OCCCO)ccc2N1C(=O)c1ccc2ccccc2c1 (stereo not given in full) | n
CC(C)[Si]1(C(C)C)OCc2cc(C3CC3)nc(-c3ccc(Oc4ccccc4)cc3)c21 | n

Reported z-score at or above 0.9? COc1cc2c(cc1O)C(c1cccs1)N(Cc1cc3c(cc1Br)OCO3)CC2 (stereo not given) n

Reported z-score at or above 0.9? COCCOC(=O)N1C(=O)[C@@]2(c3cc(C#CC4=CCCCC4)ccc31)[C@H](c1ccccc1OCCO)N1[C@H](c3ccccc3)[C@H](c3ccccc3)OC(=O)[C@H]1[C@@H]2C(=O)N1CCN(c2ncccn2)CC1 y
